Biological target: Aspartate--tRNA(Asp/Asn) ligase (Mycobacterium tuberculosis (strain ATCC 25618 / H37Rv)) (UniProt P9WFW3)
Sequence (P9WFW3 whole entry): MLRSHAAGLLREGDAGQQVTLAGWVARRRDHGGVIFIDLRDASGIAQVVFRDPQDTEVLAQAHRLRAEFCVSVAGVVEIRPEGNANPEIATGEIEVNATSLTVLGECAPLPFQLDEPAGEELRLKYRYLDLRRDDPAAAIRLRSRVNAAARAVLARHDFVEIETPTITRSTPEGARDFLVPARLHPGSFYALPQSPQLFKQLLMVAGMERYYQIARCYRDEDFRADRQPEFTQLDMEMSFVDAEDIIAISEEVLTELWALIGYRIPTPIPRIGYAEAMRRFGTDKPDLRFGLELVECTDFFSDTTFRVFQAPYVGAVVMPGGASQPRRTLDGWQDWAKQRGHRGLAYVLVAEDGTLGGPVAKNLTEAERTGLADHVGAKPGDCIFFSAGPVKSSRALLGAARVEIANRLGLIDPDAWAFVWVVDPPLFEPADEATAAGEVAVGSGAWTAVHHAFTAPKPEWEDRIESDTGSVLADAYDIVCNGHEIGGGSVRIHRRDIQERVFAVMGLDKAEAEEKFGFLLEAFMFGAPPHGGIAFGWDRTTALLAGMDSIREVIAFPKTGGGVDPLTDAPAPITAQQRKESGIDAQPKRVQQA
Assay: Assay for Asp RNA synthetase-1 from Mycobacterium tuberculosis
Type: functional
Parameters: scale not given: in the data most compounds retested in dose-response had high values
Conditions: 30 µM
endpoint label: Percent Effect (%)
// return numeric value only (unit: %, not printed)

Query: I am curious: what Percent Effect value has been reported for `CN(C)C(=O)CS(=O)(=O)Cc1cc(Cl)c2c(c1)OCO2` ?
Result: 0.927

Query: I am curious: what Percent Effect value has been reported for CN1CC(=O)N(c2cccc(F)c2)CC12CCNC2 (stereo not given) ?
Result: -4.35

Query: I am curious: what Percent Effect value has been reported for `COc1cccc(CN(C)C(=O)CCC(=O)c2ccc(Cl)cc2)c1OC` ?
Result: -1.19

Query: I am curious: what Percent Effect value has been reported for CCN1CC2(CC1=O)CN(Cc1cccs1)CCN(C(=O)C(C)C)C2 (stereo not given) ?
Result: -0.746

Data origin, for the record: ChEMBL document CHEMBL3988442
